molecular target: human cMET (MET, c-Met, HGF receptor) on cells (human) (UniProt P08581); assay: flow cytometry (FACS), direct binding to NCI-H441 cells expressing human cMET
Sequence (P08581 25-1390): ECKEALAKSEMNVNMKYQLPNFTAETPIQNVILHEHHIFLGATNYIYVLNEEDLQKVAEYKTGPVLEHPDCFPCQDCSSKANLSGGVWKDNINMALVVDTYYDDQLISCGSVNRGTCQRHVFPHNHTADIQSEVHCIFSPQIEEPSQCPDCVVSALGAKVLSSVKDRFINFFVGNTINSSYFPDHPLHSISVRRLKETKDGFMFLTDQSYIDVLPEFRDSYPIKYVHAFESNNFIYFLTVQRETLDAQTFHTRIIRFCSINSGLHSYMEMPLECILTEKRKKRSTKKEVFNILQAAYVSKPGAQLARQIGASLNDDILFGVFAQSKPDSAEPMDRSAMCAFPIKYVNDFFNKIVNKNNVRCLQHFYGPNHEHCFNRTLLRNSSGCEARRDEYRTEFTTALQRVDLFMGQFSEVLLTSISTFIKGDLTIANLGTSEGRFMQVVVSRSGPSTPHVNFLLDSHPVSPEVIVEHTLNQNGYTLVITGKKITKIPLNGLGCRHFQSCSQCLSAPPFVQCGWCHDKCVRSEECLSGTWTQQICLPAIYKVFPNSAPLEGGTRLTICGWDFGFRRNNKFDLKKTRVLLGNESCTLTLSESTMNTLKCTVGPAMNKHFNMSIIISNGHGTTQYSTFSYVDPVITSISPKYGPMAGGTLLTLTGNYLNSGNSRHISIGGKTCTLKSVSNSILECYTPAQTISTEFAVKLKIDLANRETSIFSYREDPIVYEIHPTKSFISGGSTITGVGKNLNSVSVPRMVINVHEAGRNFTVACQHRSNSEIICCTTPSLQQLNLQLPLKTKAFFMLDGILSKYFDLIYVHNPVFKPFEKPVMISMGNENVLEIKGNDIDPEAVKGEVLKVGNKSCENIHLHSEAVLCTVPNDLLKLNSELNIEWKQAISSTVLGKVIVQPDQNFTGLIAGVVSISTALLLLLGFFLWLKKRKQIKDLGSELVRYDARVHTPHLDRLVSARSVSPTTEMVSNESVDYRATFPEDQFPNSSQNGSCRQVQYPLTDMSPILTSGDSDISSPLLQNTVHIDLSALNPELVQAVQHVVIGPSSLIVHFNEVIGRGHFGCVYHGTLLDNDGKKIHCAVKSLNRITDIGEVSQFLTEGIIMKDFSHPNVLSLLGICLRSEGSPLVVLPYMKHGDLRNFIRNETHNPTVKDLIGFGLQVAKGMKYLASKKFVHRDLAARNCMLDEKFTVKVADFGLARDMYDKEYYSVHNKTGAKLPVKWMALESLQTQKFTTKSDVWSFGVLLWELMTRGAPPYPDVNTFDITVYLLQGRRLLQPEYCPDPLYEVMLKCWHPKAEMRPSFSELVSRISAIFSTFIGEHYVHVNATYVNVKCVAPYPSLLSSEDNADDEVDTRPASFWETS
Could you please report measured EC50 (read off the curve) for the items listed next?
# output: bare number, implied unit pM

Param item = hucMET27Gv2.2 (antibody, human IgG1, kappa, V domains shown) VH: EVQLVESGGGLVQPGGSLRLSCAASGFTFSSYDMSWVRQAPGKGLELVATINSNGVSIYYPDSVKGRFTISRDIAKNSLYLQMNSLRAEDTAVYYCAREEITTEMDYWGQGTLVTVSS VL: EIVLTQSPATLSLSPGERATLSCRASESVDSYGNSFIHWYQQKPGQAPRLLIYRASNLESGIPARFSGSGSRTDFTLTISSLEPEDFAVYYCQQSNEEPLTFGQGTKVELKR ; retrieve measured EC50 (read off the curve). 200

Record request: EC50 (read off the curve) value, item hucMet27Gv1.2 (antibody, human IgG1, kappa, V domains shown) VH: EVQLVESGGGLVQPGGSLRLSCAASGFTFSSYDMSWVRQAPGKGLELVATINSNGVSIYYPDSVKGRFTISRDIAKNSLYLQMNSLRAEDTAVYYCAREEITTEMDYWGQGTLVTVSS VL: EIVLTQSPATLSLSPGERATLSCRASESVDSYGNSFIHWYQQKPGQAPRLLIYRASNLESGIPARFSGSGSGTDFTLTISSLEPEDFAVYYCQQSNEEPLTFGQGTKVELKR 200

I have this binder here, hucMET27Gv2.1 (antibody, human IgG1, kappa, V domains shown) VH: EVQLVESGGGLVQPGGSLRLSCAASGFTFSSYDMSWVRQAPGKGLEWVSTINSNGVSIYYPDSVKGRFTISRDNAKNSLYLQMNSLRAEDTAVYYCAREEITTEMDYWGQGTLVTVSS VL: EIVLTQSPATLSLSPGERATLSCRASESVDSYGNSFIHWYQQKPGQAPRLLIYRASNLESGIPARFSGSGSRTDFTLTISSLEPEDFAVYYCQQSNEEPLTFGQGTKVELKR , and I need its recorded EC50 (read off the curve). 200

What value of EC50 (read off the curve) has been reported for the following binder? hucMET27Gv1.1 (antibody, human IgG1, kappa, V domains shown) VH: EVQLVESGGGLVQPGGSLRLSCAASGFTFSSYDMSWVRQAPGKGLEWVSTINSNGVSIYYPDSVKGRFTISRDNAKNSLYLQMNSLRAEDTAVYYCAREEITTEMDYWGQGTLVTVSS VL: EIVLTQSPATLSLSPGERATLSCRASESVDSYGNSFIHWYQQKPGQAPRLLIYRASNLESGIPARFSGSGSGTDFTLTISSLEPEDFAVYYCQQSNEEPLTFGQGTKVELKR 200

Report EC50 (read off the curve) for hucMet27v1.2 (antibody, human IgG1, kappa, V domains shown) VH: EVQLVESGGGLVQPGGSLRLSCAASGFTFSSYDMSWVRQTPGKGLELVATINSNGVSIYYPDSVKGRFTISRDIAKNTLYLQMSSLRAEDTAMYYCAREEITTEMDYWGQGTSVTVSS VL: DIVLTQSPASLAVSPGQRATISCRASESVDSYGNSFIHWYQQKPGQPPKLLIYRASNLESGIPARFSGSGSRTDFTLTINPVEANDVATYYCQQSNEEPLTFGGGTKLELKR please. 400
